# experiment: Tmax in wound interstitial fluid of diabetic patient with chronic wound infection at […], iv loading dose followed by […], iv BID for […] by microdialysis
# Format: ADME, organism-based
# studyConditions: human
metricName: Tmax (h)
Give the value in h but do not write h after it.

input: Can you share its Tmax? I mean this compound: CN(C)c1cc(NC(=O)CNC(C)(C)C)c(O)c2c1C[C@H]1C[C@H]3[C@H](N(C)C)C(O)=C(C(N)=O)C(=O)[C@@]3(O)C(O)=C1C2=O
output: 4.38

====

# experiment: Tmax in plasma of diabetic patient with chronic wound infection at […], iv loading dose followed by […], iv BID for 2 to 3 doses by microdialysis
# Format: ADME, organism-based
# studyConditions: human
metricName: Tmax (h)
Give the value in h but do not write h after it.

input: Can you share its Tmax? I mean this compound: CN(C)c1cc(NC(=O)CNC(C)(C)C)c(O)c2c1C[C@H]1C[C@H]3[C@H](N(C)C)C(O)=C(C(N)=O)C(=O)[C@@]3(O)C(O)=C1C2=O [TIGECYCLINE]
output: 1.13

====

# experiment: Cmax in plasma of diabetic patient with chronic wound infection at […], iv loading dose followed by […], iv BID for 2 to 3 doses by microdialysis
# Format: ADME, organism-based
# Parameters: route intravenous
# studyConditions: human
metricName: Cmax (ng/mL)
Give the value in ng/mL but do not write ng/mL after it.

input: Can you share its Cmax? I mean this compound: CN(C)c1cc(NC(=O)CNC(C)(C)C)c(O)c2c1C[C@H]1C[C@H]3[C@H](N(C)C)C(O)=C(C(N)=O)C(=O)[C@@]3(O)C(O)=C1C2=O
output: 420

====

# experiment: AUC (0 to 24 hrs) in thigh interstitial fluid of diabetic patient with chronic wound infection at […], iv loading dose followed by […], iv BID for […] by microdialysis
# Type: ADME, organism-based
# Design: time < 24 hr, route intravenous
# studyConditions: human
metricName: AUC at 24 h (ng·h/mL)
Give the value in ng·h/mL but do not write ng·h/mL after it.

input: Can you share its AUC at 24 h? I mean this molecule: CN(C)c1cc(NC(=O)CNC(C)(C)C)c(O)c2c1C[C@H]1C[C@H]3[C@H](N(C)C)C(O)=C(C(N)=O)C(=O)[C@@]3(O)C(O)=C1C2=O
output: 2520

====

# experiment: Terminal half life in wound interstitial fluid of diabetic patient with chronic wound infection at […], iv loading dose followed by […], iv BID for […] by microdialysis
# Assay type: ADME, organism-based
# studyConditions: human
metricName: half-life (h)
Give the value in h but do not write h after it.

input: Can you share its half-life? I mean this compound: CN(C)c1cc(NC(=O)CNC(C)(C)C)c(O)c2c1C[C@H]1C[C@H]3[C@H](N(C)C)C(O)=C(C(N)=O)C(=O)[C@@]3(O)C(O)=C1C2=O
output: 24.9

====

# experiment: fTmax in plasma of diabetic patient with chronic wound infection at […], iv loading dose followed by […], iv BID for 2 to 3 doses by microdialysis
# Type: ADME, organism-based
# studyConditions: human
metricName: Tmax (h)
Give the value in h but do not write h after it.

input: Can you share its Tmax? I mean this compound: CN(C)c1cc(NC(=O)CNC(C)(C)C)c(O)c2c1C[C@H]1C[C@H]3[C@H](N(C)C)C(O)=C(C(N)=O)C(=O)[C@@]3(O)C(O)=C1C2=O
output: 1.13

====

# experiment: Tmax in thigh interstitial fluid of diabetic patient with chronic wound infection at […], iv loading dose followed by […], iv BID for […] by microdialysis
# Type: ADME, organism-based
# studyConditions: human
metricName: Tmax (h)
Give the value in h but do not write h after it.

input: Can you share its Tmax? I mean this compound: CN(C)c1cc(NC(=O)CNC(C)(C)C)c(O)c2c1C[C@H]1C[C@H]3[C@H](N(C)C)C(O)=C(C(N)=O)C(=O)[C@@]3(O)C(O)=C1C2=O
output: 3.38

====

# experiment: Cmax in thigh interstitial fluid of diabetic patient with chronic wound infection at […], iv loading dose followed by […], iv BID for […] by microdialysis
# Assay type: ADME, organism-based
# Set-up: route intravenous
# studyConditions: human
metricName: Cmax (ng/mL)
Give the value in ng/mL but do not write ng/mL after it.

input: Can you share its Cmax? I mean this compound: CN(C)c1cc(NC(=O)CNC(C)(C)C)c(O)c2c1C[C@H]1C[C@H]3[C@H](N(C)C)C(O)=C(C(N)=O)C(=O)[C@@]3(O)C(O)=C1C2=O
output: 180

====

# experiment: Terminal half life in plasma of diabetic patient with chronic wound infection at […], iv loading dose followed by […], iv BID for 2 to 3 doses by microdialysis
# Type: ADME, organism-based
# studyConditions: human
metricName: half-life (h)
Give the value in h but do not write h after it.

input: Can you share its half-life? I mean this compound: CN(C)c1cc(NC(=O)CNC(C)(C)C)c(O)c2c1C[C@H]1C[C@H]3[C@H](N(C)C)C(O)=C(C(N)=O)C(=O)[C@@]3(O)C(O)=C1C2=O
output: 9.73

====

# experiment: Volume of distribution at steady state in plasma of diabetic patient with chronic wound infection at […], iv loading dose followed by […], iv BID for 2 to 3 doses by microdialysis
# Assay type: ADME, organism-based
# studyConditions: human, read-out: Vdss
metricName: Vd (L/kg)
Give the value in L/kg but do not write L/kg after it.

input: Can you share its Vd? I mean this molecule: CN(C)c1cc(NC(=O)CNC(C)(C)C)c(O)c2c1C[C@H]1C[C@H]3[C@H](N(C)C)C(O)=C(C(N)=O)C(=O)[C@@]3(O)C(O)=C1C2=O [TIGECYCLINE]
output: 3.95
